target: SARS-CoV-2 membrane protein on expressing cells (SARS-CoV-2, UniProt P0DTC5 1-222)
Would you kindly list MFI Ratio for each of these binders?
Please reply with the value in numeric form only.

MFI Ratio lookup needed for 10-41 (VHH) VHH: EVQLVESGGGLVQPGGSLRLSCAASGRNLRMYRMGWFRQAPGKEREFVALISRVGVTSYADSVKGRFTISADNSKNTAYLQMNSLKPEDTAVYYCARGTSFFNFWSGSLGRVGFDSWGQGTLVTVSS , thanks. 1.75

What value of measured MFI Ratio is listed for 10-51 (VHH) VHH: EVQLVESGGGLVQPGGSLRLSCAASGRFFSTRVMGWFRQAPGKEREFVARIWPGGSTYYADSVKGRFTISADNSKNTAYLQMNSLKPEDTAVYYCARDRGIFGVSRWGQGTLVTVSS ? 1.47

Record request: MFI Ratio value, item 9-8 (VHH) VHH: EVQLVESGGGLVQPGGSLRLSCAASGRTFRRYPMGWFRQAPGKEREFVAAISRSGGSTYYADSVKGRFTISADNSKNTAYLQMNSLKPEDTAVYYCAAKRLRSFASGGSYDWGQGTLVTVSS 3.76
